TESTED_ON: RSV F protein on respiratory syncytial virus (RSV-Long strain) (respiratory syncytial virus (Long strain)) (UniProt P12568)
Sequence (P12568 26-574): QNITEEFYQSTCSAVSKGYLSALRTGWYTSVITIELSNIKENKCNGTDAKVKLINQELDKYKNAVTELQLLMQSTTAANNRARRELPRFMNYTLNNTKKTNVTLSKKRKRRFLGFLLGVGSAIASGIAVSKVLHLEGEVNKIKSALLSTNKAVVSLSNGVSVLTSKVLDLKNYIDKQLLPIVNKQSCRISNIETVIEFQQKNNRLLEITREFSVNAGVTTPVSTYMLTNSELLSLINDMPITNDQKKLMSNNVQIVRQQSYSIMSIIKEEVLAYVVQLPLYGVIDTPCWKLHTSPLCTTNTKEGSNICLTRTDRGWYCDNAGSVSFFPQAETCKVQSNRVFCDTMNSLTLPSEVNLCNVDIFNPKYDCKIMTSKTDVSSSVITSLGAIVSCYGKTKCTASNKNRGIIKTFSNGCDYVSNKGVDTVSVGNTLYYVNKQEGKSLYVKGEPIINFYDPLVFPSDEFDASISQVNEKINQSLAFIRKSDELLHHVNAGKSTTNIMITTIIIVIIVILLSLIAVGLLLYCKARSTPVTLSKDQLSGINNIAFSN
EXPERIMENT: cell-based or functional assay
Label Condition met when Mean IC50 (Control), RSV microneutralization < 0.04 µg/mL; otherwise Condition not met.

[
  {
    "BINDER": "P11d4 monoclonal antibody (antibody, V domains shown) VH: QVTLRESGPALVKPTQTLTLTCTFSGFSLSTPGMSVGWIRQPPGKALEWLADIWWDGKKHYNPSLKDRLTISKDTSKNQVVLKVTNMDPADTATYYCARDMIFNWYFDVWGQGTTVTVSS VL: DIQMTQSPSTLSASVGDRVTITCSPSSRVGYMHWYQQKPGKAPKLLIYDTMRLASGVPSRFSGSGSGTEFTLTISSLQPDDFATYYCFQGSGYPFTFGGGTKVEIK",
    "ASSIGNED_LABEL": "Condition met"
  },
  {
    "BINDER": "P12f2 Fab fragment (Fab, V domains shown) VH: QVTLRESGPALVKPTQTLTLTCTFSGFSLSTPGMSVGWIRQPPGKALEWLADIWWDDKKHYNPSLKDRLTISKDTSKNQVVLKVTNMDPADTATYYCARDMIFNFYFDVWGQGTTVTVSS VL: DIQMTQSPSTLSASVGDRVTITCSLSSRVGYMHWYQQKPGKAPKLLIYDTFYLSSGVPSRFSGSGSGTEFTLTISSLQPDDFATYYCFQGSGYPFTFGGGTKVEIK",
    "ASSIGNED_LABEL": "Condition met"
  },
  {
    "BINDER": "A1h5 Fab fragment (Fab, V domains shown) VH: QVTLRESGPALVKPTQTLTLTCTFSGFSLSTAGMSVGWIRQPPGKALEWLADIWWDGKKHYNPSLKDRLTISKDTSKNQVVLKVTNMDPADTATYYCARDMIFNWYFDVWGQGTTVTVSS VL: DIQMTQSPSTLSASVGDRVTITCSLSSSVGYMHWYQQKPGKAPKLLIYDTFFHRSGVPSRFSGSGSGTEFTLTISSLQPDDFATYYCFQGSGYPFTFGGGTKVEIK",
    "ASSIGNED_LABEL": "Condition not met"
  },
  {
    "BINDER": "A8c7 monoclonal antibody (antibody, V domains shown) VH: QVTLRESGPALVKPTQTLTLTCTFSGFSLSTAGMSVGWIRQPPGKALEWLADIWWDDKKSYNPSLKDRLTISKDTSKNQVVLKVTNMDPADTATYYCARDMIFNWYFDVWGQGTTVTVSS VL: DIQMTQSPSTLSASVGDRVTITCSPSSRVGYMHWYQQKPGKAPKLLIYDTRYQSSGVPSRFSGSGSGTEFTLTISSLQPDDFATYYCFQGSGYPFTFGGGTKVEIK",
    "ASSIGNED_LABEL": "Condition met"
  },
  {
    "BINDER": "P12f2 monoclonal antibody (antibody, V domains shown) VH: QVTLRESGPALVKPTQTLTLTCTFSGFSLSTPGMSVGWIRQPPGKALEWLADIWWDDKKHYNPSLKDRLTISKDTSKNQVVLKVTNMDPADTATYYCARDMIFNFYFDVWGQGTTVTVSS VL: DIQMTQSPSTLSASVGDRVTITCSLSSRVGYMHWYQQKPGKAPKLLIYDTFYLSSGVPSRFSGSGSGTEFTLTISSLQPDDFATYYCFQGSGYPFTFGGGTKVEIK",
    "ASSIGNED_LABEL": "Condition met"
  },
  {
    "BINDER": "P12f4 Fab fragment (Fab, V domains shown) VH: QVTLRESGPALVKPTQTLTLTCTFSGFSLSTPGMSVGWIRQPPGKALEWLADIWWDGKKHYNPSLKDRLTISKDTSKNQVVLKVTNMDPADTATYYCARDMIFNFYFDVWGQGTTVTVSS VL: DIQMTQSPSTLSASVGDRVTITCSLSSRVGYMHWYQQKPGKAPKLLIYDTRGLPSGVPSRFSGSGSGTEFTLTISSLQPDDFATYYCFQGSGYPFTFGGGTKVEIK",
    "ASSIGNED_LABEL": "Condition met"
  },
  {
    "BINDER": "A1e9 monoclonal antibody (antibody, V domains shown) VH: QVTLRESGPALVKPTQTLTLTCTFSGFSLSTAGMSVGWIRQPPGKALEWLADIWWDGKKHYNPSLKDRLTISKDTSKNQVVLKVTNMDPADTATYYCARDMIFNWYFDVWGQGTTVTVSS VL: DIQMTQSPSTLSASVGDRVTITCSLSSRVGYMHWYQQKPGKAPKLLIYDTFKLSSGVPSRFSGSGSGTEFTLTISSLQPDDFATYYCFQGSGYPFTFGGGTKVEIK",
    "ASSIGNED_LABEL": "Condition not met"
  }
]
